Reference source for all entries: paper PMC9951844

- system-tested: SARS-CoV-2 Gamma (P.1) S1 (SARS-CoV-2 Gamma (P.1), strain)
readout-name: binding result

{"binder": "YB13-281 (antibody, V domains shown) VH: EVQLVESGGGLVKPGGSLRLSCAASGFTFSSYSMNWVRQAPGKGLEWVSSISSSSSYIHYADSVKGRFTISRDNAKNSLYLQMNSLRAEDTAVYYCARVSSKDYYDRSGYLRGDYDYGMDVWGQGTTVTVSS VL: QSVLTQPPSVSGAPGQRVTISCTGNSSNIGAAYDVHWYQQLPGTAPKLLIYGNSNRPSGVPDRFSGSKSGTSASLAITGLQAEDEADYYCQSYDSSLSGVFGGGTKLTVL", "readout-name": "binding result", "observed": "binds"}
{"binder": "YB13-208 (antibody, V domains shown) V domain 1: QITLKESGPTLVKPTQTLTLTCTFSGLSLSTSGVSVGWIRQPPGKAPEWLALIYWDDDKRYSPSLTSRLSITKDTSKNQVVLTMTNMDPVDTATYYCAHPRYYGDSSGYYWIWGQGTMVTVSS V domain 2: SYELTQPPSVSVSPGQTARITCSGDALPKQYAYWYQQKPGQAPVVVMYKTSERPSGIPERFSGSSSGTTVTLTISGVQAEDEADYYCQSADSSGFYVFGTGTQVTVL", "readout-name": "binding result", "observed": "binds"}
{"binder": "YB13-209 (antibody, V domains shown) VH: EVQLVESGGGLVKPGGSLKLSCAASGFSFVNAWMSWVRQAPGKGLEWVGRIKDKIDGGTTDYAAPVKGRFSISRDDSKNMLYLQMTSLKTEDTAVYYCTTGYNWHYGIEYWGQGTLVTVSS VL: DIQMTQSPSSLSASVGDRVTVTCRASQSINSYLNWYQQKPGKAPKLLIYAASSLQSGVPSRFSGSGSGTDFTLTISSLQAEDFATYYCQQSYSTPDTFGQGTKLEIK", "readout-name": "binding result", "observed": "binds"}
